Assay: Half life in mouse plasma
Format: ADME, cell-free
OBSERVED_PROPERTY: half-life (min)
Give the number; min is assumed, so skip it.

Lookup: Item under review: CC1=C2CC(C)(C)/C=C/C(=O)/C(C)=C\C3=C[C@H](C)C[C@]3(O2)C1=O [JATROPHONE] . Reported half-life?
Found: 12.6

* * *

Test: Half life in human plasma
Type: ADME, cell-free
OBSERVED_PROPERTY: half-life (min)
Give the number; min is assumed, so skip it.

Lookup: Item under review: CC1=C2CC(C)(C)/C=C/C(=O)/C(C)=C\C3=C[C@H](C)C[C@]3(O2)C1=O [JATROPHONE] . Reported half-life?
Found: 7.8

Cited source for all entries: ChEMBL document CHEMBL2401682
